- Test system: RAW-Dual
- test: NF-kB SEAP reporter activity, fold change vs agonist alone; cytotoxicity flag (confluency mask): not cytotoxic; higher = enhanced NF-kB activity
- measurement conditions: agonist: Pam2CSK4 (TLR2/6) 0.1 ug/mL
Whole data set: some 2,900 compounds, median “NF-kB SEAP reporter activity, fold change vs agonist alone” near 0.99, cut for the highest 2% near 2.6. Shown is part of a subset that was picked to be rich in the highest values.
We begin with a simple list: items and their reported NF-kB SEAP reporter activity.
Please give only the number in your answer, with no unit.

{"compound": "CCOC(=O)/C=C/c1ccc(O)c(OC)c1 (library stock concentration (final ~1000-fold dilution): 10 mM)", "NF-kB SEAP reporter activity": 0.959}
{"compound": "Cl.Cl.c1cc(-c2cnn3cc(-c4ccc(OCCN5CCCCC5)cc4)cnc23)ccn1 (library stock concentration (final ~1000-fold dilution): 10 mM water)", "NF-kB SEAP reporter activity": 1.44}

# input for lookup
Q) Return value of NF-kB SEAP reporter activity for input c1cc(-c2cnn3cc(-c4ccc(OCCN5CCCCC5)cc4)cnc23)ccn1 (library stock concentration (final ~1000-fold dilution): 2 mM) , no commentary.
A) 1.32

The measured values listed here are drawn from the supplement of paper PMC10037445.
